Ref: patent US20070207507A1

# assayed.system: myeloperoxidase
# Sequence (P05164 165-745): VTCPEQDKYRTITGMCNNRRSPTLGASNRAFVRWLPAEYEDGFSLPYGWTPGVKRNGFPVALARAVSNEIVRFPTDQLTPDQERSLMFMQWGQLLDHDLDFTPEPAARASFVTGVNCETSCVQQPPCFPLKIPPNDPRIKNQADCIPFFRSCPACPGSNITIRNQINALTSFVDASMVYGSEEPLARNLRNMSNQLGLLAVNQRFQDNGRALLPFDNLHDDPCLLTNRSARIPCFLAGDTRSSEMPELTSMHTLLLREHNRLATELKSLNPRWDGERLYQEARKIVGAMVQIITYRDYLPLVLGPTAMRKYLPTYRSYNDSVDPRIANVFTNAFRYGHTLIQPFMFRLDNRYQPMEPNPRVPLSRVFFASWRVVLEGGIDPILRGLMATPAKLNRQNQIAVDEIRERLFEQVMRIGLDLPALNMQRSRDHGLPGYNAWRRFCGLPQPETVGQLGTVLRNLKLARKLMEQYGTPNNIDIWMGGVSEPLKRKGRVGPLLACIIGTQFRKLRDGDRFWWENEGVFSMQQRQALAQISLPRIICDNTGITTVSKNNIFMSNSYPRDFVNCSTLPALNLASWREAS
# method: SPR (Biacore 1000), biotinylated myeloperoxidase on a streptavidin chip, peptide at 1 uM, fitted curve
Where no end group is shown, it is not given here.
property.label: pKd
Give bare numbers, as −log10 of the molar value.

Problem: Given RSGQCHDDTWNCLACVGGSGGGC (also: cysteine-constrained, Cys pairing not given here) [MPO-17 twenty-three mer synthetic polypeptide] , respond with its pKd.
Solution: 6.05
